// data source = patent US20100029615A1

TARGET OF ASSAY: SMO (Mus musculus)
Construct: endogenous in cells; host or cells: C3H10T1/2 (ATCC #CCL-226)
Sequence (P56726 33-793): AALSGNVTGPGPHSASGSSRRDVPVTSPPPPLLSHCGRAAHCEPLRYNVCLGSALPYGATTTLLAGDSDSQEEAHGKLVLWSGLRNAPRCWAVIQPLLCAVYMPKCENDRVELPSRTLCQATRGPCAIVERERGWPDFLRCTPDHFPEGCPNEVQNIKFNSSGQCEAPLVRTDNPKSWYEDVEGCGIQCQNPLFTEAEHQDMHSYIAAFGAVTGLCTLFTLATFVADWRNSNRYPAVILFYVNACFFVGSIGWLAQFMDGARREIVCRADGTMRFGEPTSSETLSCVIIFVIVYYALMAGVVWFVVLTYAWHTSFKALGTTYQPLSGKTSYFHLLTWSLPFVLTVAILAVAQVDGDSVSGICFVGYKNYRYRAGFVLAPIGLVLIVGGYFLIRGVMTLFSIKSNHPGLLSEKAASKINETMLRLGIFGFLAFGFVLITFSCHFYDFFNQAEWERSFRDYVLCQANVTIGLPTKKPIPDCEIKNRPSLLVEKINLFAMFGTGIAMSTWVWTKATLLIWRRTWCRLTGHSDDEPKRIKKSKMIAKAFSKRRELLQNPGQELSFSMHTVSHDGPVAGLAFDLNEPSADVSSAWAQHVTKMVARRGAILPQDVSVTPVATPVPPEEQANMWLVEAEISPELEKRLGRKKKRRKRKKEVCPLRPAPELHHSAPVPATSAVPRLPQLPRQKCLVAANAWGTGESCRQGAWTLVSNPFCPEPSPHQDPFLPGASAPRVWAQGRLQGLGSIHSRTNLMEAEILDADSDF
EXPERIMENT: Smoothened (SMO)/Sonic Hedgehog (SHh) Transient Transcriptional Activation Assay (Gli-luciferase reporter in C3H10T1/2 cells)
Type: cell-based, murine
CONDITION SUMMARY: C3H 10T1/2, 2 μM test compound, SHh 250 ng/ml, 20 hrs, read-out: SMO CELL % INHIBITION @ 2 μM
Where a name gives a salt, the structure may show the parent alone.
QUANTITY: inhibition at 2 µM (%)
Numbers only; they are read as %.

Illustrative cases are given below, each with its answer.
>  <MOLECULE>
O=C(NC1CCCC(c2nc3ccc(F)c(F)c3[nH]2)C1)c1ccc2c(c1)OCCO2 (stereo not drawn) [Example 81, HCl]

>  <QUANTITY>
inhibition at 2 µM

>  <NUMERIC VALUE>
103

$$$$
>  <MOLECULE>
COc1ccc(C(=O)NC2CCCC(c3nc4ccccc4[nH]3)C2)cc1Cl (stereo not drawn) [Example 59, HCl]

>  <QUANTITY>
inhibition at 2 µM

>  <NUMERIC VALUE>
101

$$$$
>  <MOLECULE>
O=C(N[C@@H]1CCC[C@H](c2nc3ccccc3[nH]2)C1)c1cc2c(cn1)OCCO2 [Example 253]

>  <QUANTITY>
inhibition at 2 µM

>  <NUMERIC VALUE>
100

$$$$

Prompt: Fill: inhibition at 2 µM (SMO (Mus musculus)) for this molecule O=C(N[C@@H]1CCC[C@H](c2nc3cc(C(F)(F)F)ccc3[nH]2)C1)c1ccc2c(c1)CN(CC1CC1)CC2 [Example 290, HCl]
Completion: 104

Prompt: Fill: inhibition at 2 µM (SMO (Mus musculus)) for this molecule O=C1COc2ccc(C(=O)N[C@@H]3CCCC(c4nc5ccccc5[nH]4)C3)cc2N1 (stereo partly drawn) [Example 294]
Completion: 62.5
